target: CCK-B receptor (Cavia porcellus, UniProt H0VZC5); construct: guinoa pig brain (CCK-B); from tissue; host or cells: guinea pig brain; experiment: displacement of ^125 I-CCK from guinea pig brain (CCK-B receptor binding); conditions: guinoa pig brain (CCK-B), read-out: CCK receptor binding IC50, ^125 I-CCK Brain
Sequence (H0VZC5 1-426): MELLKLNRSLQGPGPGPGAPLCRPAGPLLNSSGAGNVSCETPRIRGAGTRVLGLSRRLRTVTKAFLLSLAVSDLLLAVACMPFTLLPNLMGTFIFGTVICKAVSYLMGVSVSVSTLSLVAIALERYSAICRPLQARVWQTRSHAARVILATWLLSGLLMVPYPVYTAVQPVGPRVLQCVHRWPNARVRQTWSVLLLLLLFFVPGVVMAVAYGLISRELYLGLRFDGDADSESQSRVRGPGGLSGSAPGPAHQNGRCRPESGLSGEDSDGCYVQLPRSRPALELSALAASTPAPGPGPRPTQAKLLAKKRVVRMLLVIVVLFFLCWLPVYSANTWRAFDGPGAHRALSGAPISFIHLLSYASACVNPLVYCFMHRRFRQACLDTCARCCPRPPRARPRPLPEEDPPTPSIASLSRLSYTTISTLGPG
Structures can show the parent of a compound that is named as a salt.
The compounds listed here are annotated with their IC50.

[
  {
    "compound": "Cc1cccc(NC(=O)NC2N=C(C3CCC(C)(C)CCN3)c3ccccc3N(C)C2=O)c1 (single isomer, unassigned) [Example 6, hydrochloride]",
    "testSystem": "CCK-B receptor (Cavia porcellus, UniProt H0VZC5)",
    "IC50 [nM]": 12
  },
  {
    "compound": "CCCN1C(=O)C(NC(=O)Nc2cccc(C)c2)N=C(C2CCCCN2)c2ccccc21 (single isomer, unassigned) [Example 2, hydrochloride]",
    "testSystem": "CCK-B receptor (Cavia porcellus, UniProt H0VZC5)",
    "IC50 [nM]": 36.4
  },
  {
    "compound": "CCCN1C(=O)C(NC(=O)Nc2cccc(C)c2)N=C(C2CCC(C)(C)CCN2C)c2ccccc21 (single isomer, unassigned) [Example 5, hydrochloride]",
    "testSystem": "CCK-B receptor (Cavia porcellus, UniProt H0VZC5)",
    "IC50 [nM]": 25.5
  }
]

---

The compounds listed here are annotated with their pIC50.
Target: CCK-A receptor (Rattus norvegicus)
Sequence (P30551 1-444): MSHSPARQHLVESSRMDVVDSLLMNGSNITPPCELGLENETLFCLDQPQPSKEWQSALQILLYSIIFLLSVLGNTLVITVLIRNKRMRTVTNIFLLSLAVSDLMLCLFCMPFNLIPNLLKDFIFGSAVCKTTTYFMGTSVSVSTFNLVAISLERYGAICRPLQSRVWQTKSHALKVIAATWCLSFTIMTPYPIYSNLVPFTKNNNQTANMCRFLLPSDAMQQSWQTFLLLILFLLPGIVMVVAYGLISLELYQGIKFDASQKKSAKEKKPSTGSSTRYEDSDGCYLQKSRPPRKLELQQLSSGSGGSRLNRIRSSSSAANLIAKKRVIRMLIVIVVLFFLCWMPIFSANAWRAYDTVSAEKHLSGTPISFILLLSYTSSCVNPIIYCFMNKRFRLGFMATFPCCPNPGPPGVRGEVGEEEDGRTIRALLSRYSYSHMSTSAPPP
Test: displacement of ^125 I-CCK from rat pancreas (CCK-A receptor binding)
Details: ^125 I-CCK, rat pancreas (CCK-A); read-out: CCK receptor binding IC50, ^125 I-CCK Pancreas
pIC50: −log10 of the molar value. Counter-ions that a name gives are not always drawn.
measurementType: pIC50

[
  {
    "compound": "CC(C)CN1C(=O)C(NC(=O)Nc2cccc(-c3nnn[nH]3)c2)N=C(C2CCNCC2)c2ccccc21 (stereo not drawn) [Example 11, trifluoroacetic acid salt]",
    "testSystem": "CCK-A receptor (Rattus norvegicus)",
    "endpointValue": "< 5.52"
  },
  {
    "compound": "CCCN1C(=O)C(NC(=O)Nc2cccc(C)c2)N=C(C2CCCCN2)c2ccccc21 (single isomer, unassigned) [Example 2, hydrochloride]",
    "testSystem": "CCK-A receptor (Rattus norvegicus)",
    "endpointValue": "< 5.52"
  },
  {
    "compound": "CCCN1C(=O)C(NC(=O)Nc2cccc(C)c2)N=C(C2CCCCN2)c2ccccc21 (single isomer, unassigned) [Example 1, hydrochloride]",
    "testSystem": "CCK-A receptor (Rattus norvegicus)",
    "endpointValue": "< 5.52"
  }
]
